# system_tested: human CB1 receptor (Homo sapiens, UniProt P21554)
# Construct: expressed in transfected cells; host or cells: HEK-293
# Sequence (P21554 whole entry): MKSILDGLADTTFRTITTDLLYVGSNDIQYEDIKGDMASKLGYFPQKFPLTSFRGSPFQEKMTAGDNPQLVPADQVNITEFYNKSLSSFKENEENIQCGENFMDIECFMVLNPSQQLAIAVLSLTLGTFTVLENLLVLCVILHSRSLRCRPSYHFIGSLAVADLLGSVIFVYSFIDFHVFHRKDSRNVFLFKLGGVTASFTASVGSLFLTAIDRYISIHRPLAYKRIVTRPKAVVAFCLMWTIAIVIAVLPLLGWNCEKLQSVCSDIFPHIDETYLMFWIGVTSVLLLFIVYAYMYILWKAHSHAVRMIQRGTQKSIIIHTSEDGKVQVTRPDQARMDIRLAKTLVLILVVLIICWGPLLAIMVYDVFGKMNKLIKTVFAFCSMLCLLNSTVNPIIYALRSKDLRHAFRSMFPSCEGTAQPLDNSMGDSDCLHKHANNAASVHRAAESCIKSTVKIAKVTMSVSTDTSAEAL
# assay_info: Radioligand displacement in human CB1 receptor-transfected cells (HEK-293)
# Type: binding
# assay_context: Ki, displacement of 3H-SR141716A, human CB1 transfected cells; 3H-SR141716A; Table 5, parallel synthesis analogs, concentration assumes 100% yield
value_kind: pKi
// returns pKi (minus log10 of molar concentration), number only

In the examples that follow, each entry is paired with its recorded pKi.
In [3]: df
Out[3]:
                                   molecule                             system_tested  measured_result
0  CC(C)=CCC/C(C)=C/CNC(=O)c1nn(-c2ccc(Cl)cc2Cl)c(-c2ccc(Cl)cc2)c1C  human CB1 receptor (Homo sapiens, UniProt P21554)             8.17
1  CCC(C)CC(C)NC(=O)c1nn(-c2ccc(Cl)cc2Cl)c(-c2ccc(Cl)cc2)c1C (stereo not shown)  human CB1 receptor (Homo sapiens, UniProt P21554)             8.66
2  Cc1c(C(=O)N2CCc3ccccc3C2)nn(-c2ccc(Cl)cc2Cl)c1-c1ccc(Cl)cc1  human CB1 receptor (Homo sapiens, UniProt P21554)             7.68
3  Cc1c(C(=O)NCCc2ccc(O)cc2)nn(-c2ccc(Cl)cc2Cl)c1-c1ccc(Cl)cc1  human CB1 receptor (Homo sapiens, UniProt P21554)             7.87

INPUT: Give reported pKi value for CCCCCCCCCCCCNC(=O)c1nn(-c2ccc(Cl)cc2Cl)c(-c2ccc(Cl)cc2)c1C
OUTPUT: 7.36

INPUT: For the molecule COc1ccc(NC(=O)c2nn(-c3ccc(Cl)cc3Cl)c(-c3ccc(Cl)cc3)c2C)cc1 , give its reported pKi.
OUTPUT: 7.00

INPUT: For the molecule COCC(C)NC(=O)c1nn(-c2ccc(Cl)cc2Cl)c(-c2ccc(Cl)cc2)c1C (stereo not shown) , give its measured pKi value.
OUTPUT: 7.75

INPUT: Item CCCCCCCCCC(C)NC(=O)c1nn(-c2ccc(Cl)cc2Cl)c(-c2ccc(Cl)cc2)c1C (stereo not shown) : provide pKi
OUTPUT: 8.15

INPUT: Tell me measured pKi for CCCCCCCCCCCCCNC(=O)c1nn(-c2ccc(Cl)cc2Cl)c(-c2ccc(Cl)cc2)c1C please.
OUTPUT: 8.38

INPUT: Supply recorded pKi for CCCCCCCCCCCNC(=O)c1nn(-c2ccc(Cl)cc2Cl)c(-c2ccc(Cl)cc2)c1C here.
OUTPUT: 8.28

INPUT: Provide only the value of recorded pKi for Cc1c(C(=O)NCCC(c2ccccc2)c2ccccc2)nn(-c2ccc(Cl)cc2Cl)c1-c1ccc(Cl)cc1
OUTPUT: 8.48

INPUT: Note down pKi recorded for COc1ccc(CCNC(=O)c2nn(-c3ccc(Cl)cc3Cl)c(-c3ccc(Cl)cc3)c2C)cc1
OUTPUT: 7.79

INPUT: Output measured pKi for this item: Cc1c(C(=O)N2CCC(O)(c3ccccc3)CC2)nn(-c2ccc(Cl)cc2Cl)c1-c1ccc(Cl)cc1
OUTPUT: 7.55

INPUT: Determine from records and report pKi for Cc1c(C(=O)NC(C)CCC(C)C)nn(-c2ccc(Cl)cc2Cl)c1-c1ccc(Cl)cc1 (stereo not shown)
OUTPUT: 8.26

INPUT: Tell me its pKi given CCCCCC(CC)NC(=O)c1nn(-c2ccc(Cl)cc2Cl)c(-c2ccc(Cl)cc2)c1C (stereo not shown) as the entry.
OUTPUT: 8.42

INPUT: Note down pKi recorded for Cc1c(C(=O)NC(C)Cc2ccc(Cl)cc2)nn(-c2ccc(Cl)cc2Cl)c1-c1ccc(Cl)cc1 (stereo not shown)
OUTPUT: 8.62

* * *

# system_tested: CB1 receptor (Rattus norvegicus, UniProt P20272)
# Construct: Whole rat brains or dissected regions from live CD rats; tissue Charles River or Pel-Freez Biologicals; host or cells: whole rat brain (CD rats), P2 membrane
# Sequence (P20272 whole entry): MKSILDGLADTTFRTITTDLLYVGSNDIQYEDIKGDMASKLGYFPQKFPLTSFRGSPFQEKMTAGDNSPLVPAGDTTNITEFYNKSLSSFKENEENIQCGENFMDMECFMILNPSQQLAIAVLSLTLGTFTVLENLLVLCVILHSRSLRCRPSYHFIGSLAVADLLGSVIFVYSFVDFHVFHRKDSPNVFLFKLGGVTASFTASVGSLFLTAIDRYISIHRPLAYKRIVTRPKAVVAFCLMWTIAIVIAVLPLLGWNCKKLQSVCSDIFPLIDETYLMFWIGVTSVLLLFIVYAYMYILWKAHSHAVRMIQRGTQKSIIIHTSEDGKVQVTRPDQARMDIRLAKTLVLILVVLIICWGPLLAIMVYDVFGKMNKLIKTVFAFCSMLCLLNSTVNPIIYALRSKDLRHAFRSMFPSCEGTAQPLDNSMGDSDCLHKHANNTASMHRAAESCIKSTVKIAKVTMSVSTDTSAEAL
# assay_info: Radioligand displacement in whole rat brain (CB1) membrane preparations
# Type: binding
# assay_context: read-out: Ki, displacement of 3H-CP55940; whole rat brain membranes; radioligand 3H-CP55940; Tables 1 and 2
Listed compounds paired with reported Ki
I only need the number, in nM, no unit after it.

Below, each entry is followed by its recorded Ki result.
>>> df
                                   compound  value_kind  measured_result
0  Cc1c(C(=O)NN2CCOCC2)nn(-c2ccc(Cl)cc2Cl)c1-c1ccc(Cl)cc1 [MF9725-33D]          Ki             22.9
1  CCNC(=O)c1nn(-c2ccc(Cl)cc2Cl)c(-c2ccc(Cl)cc2)c1C [MF9725-54C]          Ki             46.3
2  CCOC(=O)c1nn(-c2ccc(Cl)cc2Cl)c(-c2ccc(Cl)cc2)c1C [SH9631-56]          Ki             31.8

INPUT: Dear colleague, please send me the reported Ki for CCCCNC(=O)c1nn(-c2ccc(Cl)cc2Cl)c(-c2ccc(Cl)cc2)c1C [MF9725-64-17] when you can.
OUTPUT: 13.4

INPUT: Give Ki for Cc1c(C(=O)NC(C)CO)nn(-c2ccc(Cl)cc2Cl)c1-c1ccc(Cl)cc1 (single isomer, unassigned) [MF9725-106-39]
OUTPUT: 117

INPUT: // fetch Ki given entry Cc1c(C(=O)NC2CCCCC2)nn(-c2ccc(Cl)cc2Cl)c1-c1ccc(Cl)cc1 [MF9725-66-11]
OUTPUT: 2.46

INPUT: Report Ki for Cc1c(C(=O)NCCO)nn(-c2ccc(Cl)cc2Cl)c1-c1ccc(Cl)cc1 [MF9725-93-31]
OUTPUT: 385

INPUT: Return the recorded Ki value; entry: CCCCCCNC(=O)c1nn(-c2ccc(Cl)cc2Cl)c(-c2ccc(Cl)cc2)c1C [MF9725-132-25]
OUTPUT: 18.2

* * *

# system_tested: human CB1 receptor (Homo sapiens)
# Construct: expressed in transfected cells; host or cells: HEK-293
# assay_info: Radioligand displacement in human CB1 receptor-transfected cells (HEK-293)
# Assay type: binding
# assay_context: human CB1 transfected cells; radioligand 3H-WIN55212-2; Table 3
value_kind: Max. Disp. %, 3H-WIN55212-2

Would you please look over these solved cases?
                                   compound                      system_tested                   value_kind  measured_result
0  Cc1c(C(=O)NC2CCCCC2)nn(-c2ccc(Cl)cc2Cl)c1-c1ccc(Cl)cc1  human CB1 receptor (Homo sapiens)  Max. Disp. %, 3H-WIN55212-2            96.8%
1  CCCNC(=O)c1nn(-c2ccc(Cl)cc2Cl)c(-c2ccc(Cl)cc2)c1C [MF9725-55C]  human CB1 receptor (Homo sapiens)  Max. Disp. %, 3H-WIN55212-2            73.3%
2  CCCCNC(=O)c1nn(-c2ccc(Cl)cc2Cl)c(-c2ccc(Cl)cc2)c1C  human CB1 receptor (Homo sapiens)  Max. Disp. %, 3H-WIN55212-2            93.2%

Attention now shifts to the item below.
INPUT: Consider the compound CCCCCCNC(=O)c1nn(-c2ccc(Cl)cc2Cl)c(-c2ccc(Cl)cc2)c1C . State its measured Max. Disp. %, 3H-WIN55212-2.
OUTPUT: 52.7%

* * *

# system_tested: human CB2 receptor (Homo sapiens)
# Construct: expressed in transfected cells; host or cells: CHO-K1
# Sequence (P34972 whole entry): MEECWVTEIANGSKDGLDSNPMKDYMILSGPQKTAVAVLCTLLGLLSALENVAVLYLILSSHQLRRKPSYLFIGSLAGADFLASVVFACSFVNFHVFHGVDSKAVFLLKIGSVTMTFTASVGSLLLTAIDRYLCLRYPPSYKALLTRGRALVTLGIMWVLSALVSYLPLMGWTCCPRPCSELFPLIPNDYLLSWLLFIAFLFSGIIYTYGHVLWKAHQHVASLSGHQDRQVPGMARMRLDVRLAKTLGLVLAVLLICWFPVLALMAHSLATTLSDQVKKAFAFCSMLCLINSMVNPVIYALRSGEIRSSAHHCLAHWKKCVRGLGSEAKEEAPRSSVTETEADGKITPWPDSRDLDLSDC
# assay_info: Displacement of 3H-CP55,940 in human CB2 receptor-transfected cells (CHO-K1)
# Format: binding
# assay_context: human CB2 transfected cells; radioligand 3H-CP55940; Tables 6 and 7
Rule: y for Max. Disp. %, 3H-CP55940 not less than 50%, n for anything less.

Completed entries (count: 5):
>>> print(df.to_string())
                                   compound  label_value
0  Cc1c(C(=O)NCC(C)C)nn(-c2ccc(Cl)cc2Cl)c1-c1ccc(Cl)cc1            y
1  CCCCNC(=O)c1nn(-c2ccc(Cl)cc2Cl)c(-c2ccc(Cl)cc2)c1C            y
2  Cc1c(C(=O)NC2CCCCC2)nn(-c2ccc(Cl)cc2Cl)c1-c1ccc(Cl)cc1            y
3  CCCCCCNC(=O)c1nn(-c2ccc(Cl)cc2Cl)c(-c2ccc(Cl)cc2)c1C            y
4  CCCCCCCCNC(=O)c1nn(-c2ccc(Cl)cc2Cl)c(-c2ccc(Cl)cc2)c1C            n

INPUT: Is the recorded value of Max. Disp. %, 3H-CP55940 equal to or greater than 50% for this compound? Cc1c(C(=O)NO)nn(-c2ccc(Cl)cc2Cl)c1-c1ccc(Cl)cc1
OUTPUT: n

INPUT: Tell me whether Max. Disp. %, 3H-CP55940 is at least 50% here: Cc1c(C(=O)NCCCO)nn(-c2ccc(Cl)cc2Cl)c1-c1ccc(Cl)cc1
OUTPUT: n

INPUT: Decide: is the reported value of Max. Disp. %, 3H-CP55940 for CCNC(=O)c1nn(-c2ccc(Cl)cc2Cl)c(-c2ccc(Cl)cc2)c1C [MF9725-54C] equal to or greater than 50%?
OUTPUT: y

INPUT: # bool: Max. Disp. %, 3H-CP55940 of CCCCCCC(C)(C)NC(=O)c1nn(-c2ccc(Cl)cc2Cl)c(-c2ccc(Cl)cc2)c1C >= 50%
OUTPUT: y

INPUT: Reported Max. Disp. %, 3H-CP55940 reaches at least 50% for Cc1c(C(=O)NN2CCOCC2)nn(-c2ccc(Cl)cc2Cl)c1-c1ccc(Cl)cc1 [MF9725-33D] ?
OUTPUT: y
